Tested on: HT-29
Experiment: In vitro tumor cell proliferation, HT-29
Assay type: cell-based, human
Conditions: HT-29; many values given with an undefined *; trihydrochloride; read-out: In vitro Tumor Cell Proliferation (IC50, μM) Colon HT-29
Description: The proliferation of tumor cells was measured using a sulforhodamine B assay as described in Skehan, P., et al., J. Natl. Cancer Inst. […] Tumor cells were harvested with trypsin-EDTA, cells that excluded trypan blue were counted, added to 96-well plates and incubated overnight at 37° C. […] Alternatively, the CyQUANT cell proliferation assay was used to quantitate cell proliferation. Alternatively, the CyQUANT cell proliferation assay was used to quantify tumor cell proliferation. […]
Counter-ions that a name gives are not always drawn.
// returns Not fulfilled unless IC50 is strictly below 0.3 µM, in which case Fulfilled

In plain terms, does N[C@H]1CC[C@H](Nc2nc(NC3CCN(Cc4c(F)cccc4Cl)CC3)c3ncn(C4CCCC4)c3n2)CC1 [Example 147-n, trihydrochloride] come in under 0.3 µM for IC50?
Not fulfilled

And the next one, N[C@H]1CC[C@H](Nc2nc(NC3CCN(Cc4cccc(C(F)(F)F)c4)CC3)c3ncn(C4CCCC4)c3n2)CC1 [Example 147-m, trihydrochloride] ?
Not fulfilled

And the next one, N[C@H]1CC[C@H](Nc2nc(NCCNc3ccccc3)c3ncn(C4CCCC4)c3n2)CC1 [Example 31, trihydrochloride] ?
Not fulfilled

And the next one, N[C@H]1CC[C@H](Nc2nc(NC3CCN(CC4CCCCC4)CC3)c3ncn(C4CCCC4)c3n2)CC1 [Example 147-s, trihydrochloride] ?
Not fulfilled

And the next one, N[C@H]1CC[C@H](Nc2nc(NC3CCN(Cc4cccc(Oc5ccccc5)c4)CC3)c3ncn(C4CCCC4)c3n2)CC1 [Example 147-ad, trihydrochloride] ?
Not fulfilled

And the next one, N[C@H]1CC[C@H](Nc2nc(NC3CCN(Cc4ccc(F)cc4Cl)CC3)c3ncn(C4CCCC4)c3n2)CC1 [Example 147-t, trihydrochloride] ?
Not fulfilled

And the next one, N[C@H]1CC[C@H](Nc2nc(NC3CCN(Cc4ccccc4F)CC3)c3ncn(C4CCCC4)c3n2)CC1 [Example 147-k, trihydrochloride] ?
Fulfilled

And the next one, N[C@H]1CC[C@H](Nc2nc(NC3CCN(Cc4cc(F)cc(F)c4)CC3)c3ncn(C4CCCC4)c3n2)CC1 [Example 147-g, trihydrochloride] ?
Fulfilled
